- system_under_test: UniProt:P13631
- Sequence (P13631 whole entry, species assumed): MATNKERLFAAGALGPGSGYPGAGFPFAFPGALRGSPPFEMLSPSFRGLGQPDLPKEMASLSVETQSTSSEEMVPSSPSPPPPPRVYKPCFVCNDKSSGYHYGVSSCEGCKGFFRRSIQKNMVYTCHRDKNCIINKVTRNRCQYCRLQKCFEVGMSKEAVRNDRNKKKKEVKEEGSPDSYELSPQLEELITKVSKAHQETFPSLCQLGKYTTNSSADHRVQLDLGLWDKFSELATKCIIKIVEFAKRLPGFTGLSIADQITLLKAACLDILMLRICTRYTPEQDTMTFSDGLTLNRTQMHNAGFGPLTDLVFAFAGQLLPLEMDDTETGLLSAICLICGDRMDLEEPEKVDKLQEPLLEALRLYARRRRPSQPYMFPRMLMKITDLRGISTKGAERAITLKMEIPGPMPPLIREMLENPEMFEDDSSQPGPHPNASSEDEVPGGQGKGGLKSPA
- method_summary: Ligand binding assay, RARγ
- assay_setup: read-out: Kd TATγ
- From the text: A holoreceptor transactivation assay and a ligand binding assay which measure the antagonist/agonist like activity of the compounds of the invention, or their ability to bind to the several retinoid receptor subtypes, respectively, are described in published PCT Application No. WO WO93/11755 (particularly on pages 30–33 and 37–41) published on Jun. 24, 1993, the specification of which is also incorporated herein by reference. […]
reported_property: pKd
pKd field: float, defined as -log10 of concentration (mol/L).

Data request: Given the compound Cc1ccc(C2=CCC(C)(C)c3cc4cccc(-c5ccc(C(=O)O)cc5)c4cc32)cc1 , what is its reported pKd?
Data returned: 8.15
